Give melting point for every item shown.

Quick one: melting point of Cc1cc(C(=O)Nc2cnn3c2C(=O)N(c2ccc(C(F)(F)F)cc2)C[C@@H]3C)ccn1 ? 145.1 °C

Quick one: melting point of C[C@H]1CN(c2ccc(C(F)(F)F)cc2)C(=O)c2c(NC(=O)CC3CC3)cnn21 ? 152.2 °C

Quick one: melting point of COc1cncc(C(=O)Nc2cnn3c2C(=O)N(c2ccc(C(F)(F)F)cc2)C[C@@H]3C)n1 ? 185.23 °C

Quick one: melting point of Cc1nccc(C(=O)Nc2cnn3c2C(=O)N(c2ccc(C(F)(F)F)cc2)C[C@@H]3C)c1C ? 182.69 °C

Quick one: melting point of Cc1cc(N2C[C@H](C)n3ncc(NC(=O)c4cccnc4N)c3C2=O)ccc1C(F)(F)F ? 175.63 °C

Quick one: melting point of C[C@H]1CN(c2ccc(C(F)(F)F)cc2)C(=O)c2c(NC(=O)c3ccnc(N)c3)cnn21 ? 225.63 °C

Quick one: melting point of Cc1cccc(C(=O)Nc2cnn3c2C(=O)N(c2ccc(C(F)(F)F)cc2)C[C@@H]3C)c1 ? 147.4 °C

Quick one: melting point of C[C@H]1CN(c2ccc(C(F)(F)F)cc2)C(=O)c2c(NC(=O)c3cncc(F)n3)cnn21 ? 183.54 °C

Quick one: melting point of Cc1ccc(C(=O)Nc2cnn3c2C(=O)N(c2ccc(C(F)(F)F)cc2)C[C@@H]3C)cn1 ? 175.17 °C

Quick one: melting point of Cc1cnc(N)c(C(=O)Nc2cnn3c2C(=O)N(c2ccc(C(F)(F)F)cc2)C[C@@H]3C)c1 ? 222.34 °C

Quick one: melting point of C[C@H]1CN(c2ccc(C(F)(F)F)c(Cl)c2)C(=O)c2c(NC(=O)c3ccccc3)cnn21 ? 161.54 °C

Quick one: melting point of C[C@H]1CN(c2ccc(C(F)(F)F)cc2)C(=O)c2c(NC(=O)c3cnccn3)cnn21 ? 219.91 °C

Quick one: melting point of CC(=O)Nc1ccc(C(=O)Nc2cnn3c2C(=O)N(c2ccc(C(F)(F)F)cc2)C[C@@H]3C)cn1 ? 265 °C

Quick one: melting point of COc1cc(F)ccc1C(=O)Nc1cnn2c1C(=O)N(c1ccc(C(F)(F)F)cc1)C[C@@H]2C ? 240.77 °C

Quick one: melting point of Cc1cc(C(=O)Nc2cnn3c2C(=O)N(c2ccc(C(F)(F)F)c(Cl)c2)C[C@@H]3C)cc(N)n1 ? 192.47 °C

Quick one: melting point of COc1ccc(F)c(C(=O)Nc2cnn3c2C(=O)N(c2ccc(C(F)(F)F)cc2)C[C@@H]3C)c1 ? 185.41 °C

Quick one: melting point of C[C@H]1CN(c2ccc(C(F)(F)F)c(CO)c2)C(=O)c2c(NC(=O)c3ccc(N)nc3)cnn21 ? 238.83 °C

Quick one: melting point of C[C@H]1CN(c2ccc(C(F)(F)F)cc2)C(=O)c2c(NC(=O)c3cccnc3NCCO)cnn21 (racemic) ? 168.55 °C

Quick one: melting point of C[C@H]1CN(c2ccc(C(F)(F)F)cc2)C(=O)c2c(NC(=O)c3ccc(S(=O)(=O)F)cc3)cnn21 ? 163.64 °C

----------
- target desc: human mGlu2 receptor (Homo sapiens, UniProt Q14416)
- Construct: expressed in transfected cells; host or cells: CHO cells
- Sequence (Q14416 19-872): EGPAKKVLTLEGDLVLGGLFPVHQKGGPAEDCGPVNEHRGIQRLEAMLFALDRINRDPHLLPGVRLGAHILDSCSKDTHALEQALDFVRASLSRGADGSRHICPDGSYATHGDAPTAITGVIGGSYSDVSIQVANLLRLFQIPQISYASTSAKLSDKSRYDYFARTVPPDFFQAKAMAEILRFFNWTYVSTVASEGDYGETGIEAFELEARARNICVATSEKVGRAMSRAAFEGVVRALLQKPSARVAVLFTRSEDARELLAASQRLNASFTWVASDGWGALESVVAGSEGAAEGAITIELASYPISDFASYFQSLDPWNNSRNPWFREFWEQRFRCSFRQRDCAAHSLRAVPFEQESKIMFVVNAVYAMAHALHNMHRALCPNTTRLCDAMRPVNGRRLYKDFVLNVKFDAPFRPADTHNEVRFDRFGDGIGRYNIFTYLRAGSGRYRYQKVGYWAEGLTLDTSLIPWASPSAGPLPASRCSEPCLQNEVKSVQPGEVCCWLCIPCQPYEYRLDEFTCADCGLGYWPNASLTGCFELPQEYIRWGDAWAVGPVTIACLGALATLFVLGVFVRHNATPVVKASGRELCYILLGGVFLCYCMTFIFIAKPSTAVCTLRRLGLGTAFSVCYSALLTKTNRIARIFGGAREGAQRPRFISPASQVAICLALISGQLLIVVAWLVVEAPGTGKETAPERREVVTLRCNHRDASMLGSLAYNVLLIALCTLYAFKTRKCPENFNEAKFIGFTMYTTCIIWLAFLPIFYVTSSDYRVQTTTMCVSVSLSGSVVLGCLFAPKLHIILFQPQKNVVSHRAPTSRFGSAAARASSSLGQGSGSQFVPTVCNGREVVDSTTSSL
- procedure text: [35S]GTPγS binding assay (mGluR2 negative allosteric modulation, glutamate ~EC80 60 μM)
- Type: biochemical
- condition context: membranes from CHO cells transfected with human mGlu2 receptor; glutamate ~EC80 (60 μM); pIC50 = −log IC50 (M); read-out: GTPγS-hmGluR2 anGT pIC50 (converted)
measurement type: IC50

Quick one: IC50 of Cc1cc(C(=O)Nc2cnn3c2C(=O)N(c2ccc(C(F)(F)F)cc2)C[C@@H]3C)cc(N)n1 [Co. No. 162] ? 2.75e-09 M

Quick one: IC50 of C[C@H]1CN(c2ccc(C(F)(F)F)cc2)C(=O)c2c(NC(=O)c3ccccc3)cnn21 [Co. No. 16] ? 3.39e-09 M

Quick one: IC50 of C[C@H]1CN(c2ccc(C(F)(F)F)c(F)c2)C(=O)c2c(NC(=O)c3cccnc3)cnn21 [Co. No. 148] ? 8.51e-09 M

Quick one: IC50 of Cc1cc(C(=O)Nc2cnn3c2C(=O)N(c2ccc(C(F)(F)F)c(Cl)c2)C[C@@H]3C)cnc1N [Co. No. 169] ? 5.89e-10 M

----------
Give melting point for every item shown.
Give the number; °C is assumed, so skip it.

Quick one: melting point of Cc1cc(N2C[C@H](C)n3ncc(NC(=O)c4ccc(N)nc4)c3C2=O)ccc1C(F)(F)F ? 202.24

Quick one: melting point of Cc1cc(C(=O)Nc2cnn3c2C(=O)N(c2ccc(C(F)(F)F)cc2)C[C@@H]3C)cnc1N (racemic) ? 277.76

Quick one: melting point of C[C@H]1CN(c2ccc(C(F)(F)F)cc2)C(=O)c2c(NC(=O)c3cnc(N)cn3)cnn21 ? 287.45

Quick one: melting point of C[C@H]1CN(c2ccc(C(F)(F)F)c(Cl)c2)C(=O)c2c(NC(=O)c3ccc(N)nc3)cnn21 ? 219.62

Quick one: melting point of C[C@H]1CN(c2ccc(C(F)(F)F)c(F)c2)C(=O)c2c(NC(=O)c3cncc(F)c3)cnn21 ? 217.01

Quick one: melting point of C[C@H]1CN(c2ccc(C(F)(F)F)cc2)C(=O)c2c(NC(=O)c3cccc(F)c3)cnn21 ? 161.84

Quick one: melting point of Cc1c(F)cncc1C(=O)Nc1cnn2c1C(=O)N(c1ccc(C(F)(F)F)cc1)C[C@@H]2C ? 89.55

Quick one: melting point of Cc1cnc(N)c(C(=O)Nc2cnn3c2C(=O)N(c2ccc(SC(F)(F)F)cc2)C[C@@H]3C)c1 ? 172.9

Quick one: melting point of Cc1cc(N2C[C@H](C)n3ncc(NC(=O)c4cncc(F)c4)c3C2=O)ccc1C(F)(F)F ? 155.04

Quick one: melting point of COc1cc(N2C[C@H](C)n3ncc(NC(=O)c4cccnc4)c3C2=O)ccc1C(F)(F)F ? 186.11

Quick one: melting point of C[C@H]1CN(c2ccc(Cl)cc2)C(=O)c2c(NC(=O)c3cccnc3N)cnn21 ? 209.11

Quick one: melting point of C[C@H]1CN(c2ccc(C(F)(F)F)c(Cl)c2)C(=O)c2c(NC(=O)c3cccnc3)cnn21 ? 157.47

Quick one: melting point of C[C@H]1CN(c2ccc(C(F)(F)F)c(Cl)c2)C(=O)c2c(NC(=O)c3cccnc3N)cnn21 ? 142.58

Quick one: melting point of COc1ccc(C(=O)Nc2cnn3c2C(=O)N(c2ccc(C(F)(F)F)cc2)C[C@@H]3C)cc1F ? 152.43

Quick one: melting point of C[C@H]1CN(c2ccc(OC(F)(F)F)c(Cl)c2)C(=O)c2c(NC(=O)c3cccnc3)cnn21 ? 181.21

Quick one: melting point of COc1cc(N2C[C@H](C)n3ncc(NC(=O)c4ccc(N)nc4)c3C2=O)ccc1C(F)(F)F ? 179.66

Quick one: melting point of C[C@H]1CN(c2ccccc2)C(=O)c2c(NC(=O)c3ccnc(N)c3)cnn21 ? 153.01

Quick one: melting point of Cc1cc(N)ncc1C(=O)Nc1cnn2c1C(=O)N(c1ccc(C(F)(F)F)cc1)C[C@@H]2C ? 226.06

Quick one: melting point of C[C@H]1CN(c2ccc(Cl)c(Cl)c2)C(=O)c2c(NC(=O)c3ccc(N)nc3)cnn21 ? 189.94

Quick one: melting point of Cc1cc(N2C[C@H](C)n3ncc(NC(=O)c4cccnc4)c3C2=O)ccc1C(F)(F)F ? 120.33

Quick one: melting point of COc1cc(C(=O)Nc2cnn3c2C(=O)N(c2ccc(C(F)(F)F)cc2)C[C@@H]3C)ccn1 ? 128.68

Quick one: melting point of Cc1cc(C(=O)Nc2cnn3c2C(=O)N(c2ccc(C(F)(F)F)cc2)C[C@@H]3C)cc(C)n1 ? 154.26

Quick one: melting point of C[C@H]1CN(c2ccc(C(F)(F)F)cc2)C(=O)c2c(NC(=O)c3ccc(N)cn3)cnn21 ? 289.4

Quick one: melting point of COCC1CN(c2ccc(C(F)(F)F)cc2)C(=O)c2c(NC(=O)c3ccc(N)nc3)cnn21 (single isomer, unassigned) [Co. No. 96] ? 225.83

Quick one: melting point of COc1ccnc(N)c1C(=O)Nc1cnn2c1C(=O)N(c1ccc(C(F)(F)F)cc1)C[C@@H]2C (racemic) ? 248.21

Quick one: melting point of C[C@H]1CN(c2ccc(C(F)(F)F)cc2)C(=O)c2c(NC(=O)c3ncco3)cnn21 ? 204.97

Quick one: melting point of COc1cccc(C(=O)Nc2cnn3c2C(=O)N(c2ccc(C(F)(F)F)cc2)C[C@@H]3C)c1 ? 136.91

Quick one: melting point of COc1ccc(C(=O)Nc2cnn3c2C(=O)N(c2ccc(C(F)(F)F)cc2)C[C@@H]3C)cc1 ? 164.82
